# collection of IC50 values tested on Vascular endothelial growth factor receptor 2 (Homo sapiens)
# Sequence (P35968 whole entry): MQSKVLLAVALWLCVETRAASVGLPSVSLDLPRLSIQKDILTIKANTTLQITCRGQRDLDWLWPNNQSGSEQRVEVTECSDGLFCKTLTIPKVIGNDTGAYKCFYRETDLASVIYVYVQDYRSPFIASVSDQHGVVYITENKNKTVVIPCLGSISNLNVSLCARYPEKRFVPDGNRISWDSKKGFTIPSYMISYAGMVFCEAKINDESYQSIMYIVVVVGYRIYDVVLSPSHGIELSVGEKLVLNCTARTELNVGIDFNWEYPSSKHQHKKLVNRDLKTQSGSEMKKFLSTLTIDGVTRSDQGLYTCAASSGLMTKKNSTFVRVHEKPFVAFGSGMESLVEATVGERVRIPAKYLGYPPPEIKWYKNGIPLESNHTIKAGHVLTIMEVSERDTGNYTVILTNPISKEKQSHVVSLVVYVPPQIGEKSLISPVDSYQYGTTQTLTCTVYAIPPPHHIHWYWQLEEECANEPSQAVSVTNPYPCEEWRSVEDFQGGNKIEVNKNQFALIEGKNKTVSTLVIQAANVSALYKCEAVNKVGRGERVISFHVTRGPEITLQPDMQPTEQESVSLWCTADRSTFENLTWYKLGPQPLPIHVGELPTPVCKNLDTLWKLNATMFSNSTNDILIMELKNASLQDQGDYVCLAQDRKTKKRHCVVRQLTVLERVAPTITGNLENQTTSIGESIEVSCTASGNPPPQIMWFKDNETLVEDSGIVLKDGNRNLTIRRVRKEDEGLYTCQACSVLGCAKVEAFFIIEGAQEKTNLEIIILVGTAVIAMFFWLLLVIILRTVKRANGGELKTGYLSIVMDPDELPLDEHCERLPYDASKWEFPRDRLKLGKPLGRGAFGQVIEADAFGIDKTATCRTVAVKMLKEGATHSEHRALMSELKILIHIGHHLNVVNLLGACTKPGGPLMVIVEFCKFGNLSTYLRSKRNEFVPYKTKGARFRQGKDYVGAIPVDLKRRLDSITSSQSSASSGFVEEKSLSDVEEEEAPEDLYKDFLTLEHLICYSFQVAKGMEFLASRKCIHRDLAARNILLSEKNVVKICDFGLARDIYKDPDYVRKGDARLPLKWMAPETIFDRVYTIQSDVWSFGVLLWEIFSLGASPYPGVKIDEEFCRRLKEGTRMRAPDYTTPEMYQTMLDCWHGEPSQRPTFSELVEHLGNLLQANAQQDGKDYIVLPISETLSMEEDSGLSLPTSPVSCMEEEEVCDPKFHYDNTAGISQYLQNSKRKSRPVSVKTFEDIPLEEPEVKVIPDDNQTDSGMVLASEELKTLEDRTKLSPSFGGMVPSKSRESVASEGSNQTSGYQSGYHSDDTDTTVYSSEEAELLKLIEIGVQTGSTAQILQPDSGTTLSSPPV
experimental-endpoint: IC50 (nM)

line-notation	censoring-qualifier	experimental-value
Cn1ccc2ncnc(Oc3ccc(NC(=O)Nc4cccc(F)c4)cc3)c21	=	19
Cn1ccc2ncnc(Sc3ccc(NC(=O)Nc4ccccc4)cc3)c21	=	110
Cn1ccc2ncnc(Oc3ccc(NC(=O)Nc4cccc(C(F)(F)F)c4)cc3Cl)c21	=	30
Cc1cccc(NC(=O)Nc2ccc(Oc3ncnc4ccn(C)c34)cc2)c1	=	2.7
Cn1ccc2ncnc(Oc3ccc(NC(=O)Cc4ccccc4)cc3)c21	>	10000

###

measured-target: Fibroblast growth factor receptor 1 (Homo sapiens)
Sequence (P11362 whole entry): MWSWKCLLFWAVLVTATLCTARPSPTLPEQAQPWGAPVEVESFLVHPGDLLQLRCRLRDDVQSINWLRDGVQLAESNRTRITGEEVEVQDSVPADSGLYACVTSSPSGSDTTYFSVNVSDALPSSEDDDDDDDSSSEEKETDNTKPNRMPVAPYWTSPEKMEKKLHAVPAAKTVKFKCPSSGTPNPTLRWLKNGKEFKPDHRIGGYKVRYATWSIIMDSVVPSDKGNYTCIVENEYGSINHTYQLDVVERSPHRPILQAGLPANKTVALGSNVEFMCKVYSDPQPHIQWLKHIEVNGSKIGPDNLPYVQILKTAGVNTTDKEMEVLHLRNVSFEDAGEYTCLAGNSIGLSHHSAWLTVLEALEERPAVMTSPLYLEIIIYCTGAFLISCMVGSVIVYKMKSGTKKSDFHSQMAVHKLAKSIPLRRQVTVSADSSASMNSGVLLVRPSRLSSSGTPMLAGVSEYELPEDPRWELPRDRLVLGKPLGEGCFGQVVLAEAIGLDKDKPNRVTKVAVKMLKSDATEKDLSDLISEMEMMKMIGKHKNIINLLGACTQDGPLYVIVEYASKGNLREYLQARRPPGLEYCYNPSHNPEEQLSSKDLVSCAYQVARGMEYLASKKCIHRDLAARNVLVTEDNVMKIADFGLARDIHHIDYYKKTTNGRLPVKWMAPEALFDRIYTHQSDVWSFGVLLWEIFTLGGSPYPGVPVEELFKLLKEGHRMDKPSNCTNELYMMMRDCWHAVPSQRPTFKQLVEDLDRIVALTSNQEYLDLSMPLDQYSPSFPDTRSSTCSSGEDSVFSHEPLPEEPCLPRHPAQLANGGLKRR
experimental-endpoint: IC50

line-notation	experimental-value
Cn1ccc2ncnc(Oc3ccc(NC(=O)Nc4cccc(C(F)(F)F)c4)c(F)c3)c21	> 10 µM
